Target: X-box-binding protein 1 (Homo sapiens) (UniProt P17861)
Test: XBP1 reporter suppression in cells – counter-screen, dose response (AID 504313);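 note: CHO cells carrying an XBP1 reporter stimulated with tunicamycin; potency is for inhibition of the tunicamycin-induced reporter signal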
Conditions: XBP1 reporter cell assay, percent of control
Calls of active or inactive are those of the source. The rule behind the calls is not given here.
property-measured: IC50

Some entries whose results are on file:
Consider the compound shown here: O=C1NC(=S)S/C1=C\C=C\c1ccc([N+](=O)[O-])o1 What is its recorded IC50?
inactive

// next record CC1=C(C)/C(=N\OS(=O)(=O)c2ccccc2)C=CC1=O
2.89 µM

// next record CN1/C(=C\C=C\C2=[N+](C)c3ccc4ccccc4c3C2(C)C)C(C)(C)c2ccccc21
< 0.16 µM

// next record COc1ccc(N=CC2=C(O)c3ccccc3C2=O)c(OC)c1
inactive

// next record COc1ccc([C@H]2Oc3cc(O)cc(O)c3C(=O)C2[C@@H]2C(=O)c3c(O)cc(O)cc3O[C@@H]2c2ccc(OC)cc2)cc1 (stereo partly specified)
> 10 µM (inactive)

***
Consider the compound shown here: COc1ccc(-c2nn(-c3ccccc3)cc2/C=N/NC(=O)c2ccc(Br)o2)cc1 What is its recorded IC50?
inactive

// next record NC(=S)n1[nH]c(-c2ccc([N+](=O)[O-])cc2)c(N=Nc2ccc(Cl)cc2)c1=O
inactive

// next record CC[C@@H]1CC=C[C@H]2[C@H]1C(=O)N(Cc1ccccc1)[C@H]2c1ccoc1
inactive

// next record CCCCCCCCCS(=O)(=O)N/N=C/c1cccc([N+](=O)[O-])c1
inactive

// next record CCOc1cc(C(=O)CSc2nnc(CNc3ccc(Cl)cc3)o2)ccc1NC(=O)CC
inactive

// next record Cc1cc(/C=c2/sc3nc4ccccc4n3c2=O)c(C)n1-c1ccccn1
< 0.16 µM

// next record Oc1cccc(-c2nc3c4c(ncn3n2)-c2ccccc2CC42CCCC2)c1
> 10 µM (inactive)

// next record C=CCOC(=O)C1=C(C)NC(SCC(=O)Nc2nccs2)=C(C#N)C1c1ccc(Cl)cc1 (stereo unspecified)
> 10 µM (inactive)

// next record O=C(N/N=C/c1ccc(F)cc1)c1c(O)c2ccccc2[nH]c1=O
> 10 µM (inactive)

// next record FC(F)(F)c1cc(-c2cccs2)nc(-n2cc(Br)cn2)n1
> 10 µM (inactive)

// next record Cc1cccc(N2CCN(C(=O)c3c(C)nn(Cc4ccccc4Cl)c3C)CC2)c1C
> 10 µM (inactive)

// next record C=CCOC(=O)C1=C(C)NC(C)=C(C(=O)OCC=C)C1/C=C/c1ccccc1
inactive

// next record CS(=O)(=O)c1nc(-c2ccccc2)cc(C(F)(F)F)n1
inactive

// next record Cc1ccc(S(=O)(=O)CC#CCOC(=O)c2ccc([N+](=O)[O-])cc2)cc1
inactive

// next record CC1=C(C)/C(=N\OS(=O)(=O)c2ccc(C)cc2)C=CC1=O
1.63 µM

// next record FC(F)(F)c1cccc(NC(=S)Nc2ccc(Cl)cc2Cl)c1
> 10 µM (inactive)

Recorded values, source PubChem BioAssay AID504313.
